Reference source for all entries: patent US10167283B2

molecular target: KPC-2 (Klebsiella pneumoniae, UniProt Q9F663); construct: purchased; experiment: β-lactamase inhibition, Nitrocefin hydrolysis; assay type: biochemical; settings: Experiment 2; enzyme 1.28 nM, Nitrocefin 0.1 mM; read-out: IC50 KPC-2
Sequence (Q9F663 25-293, looked up, species assumed): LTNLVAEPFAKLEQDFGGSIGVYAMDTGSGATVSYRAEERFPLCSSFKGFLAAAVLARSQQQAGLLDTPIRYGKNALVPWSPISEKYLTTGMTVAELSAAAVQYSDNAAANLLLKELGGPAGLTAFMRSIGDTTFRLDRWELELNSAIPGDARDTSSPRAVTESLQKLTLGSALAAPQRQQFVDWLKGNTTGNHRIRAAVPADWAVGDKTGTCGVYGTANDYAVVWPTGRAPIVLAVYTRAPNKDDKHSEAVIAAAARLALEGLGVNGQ
pIC50: −log10 of the molar value. Structures can show the parent of a compound that is named as a salt.
readout-type: pIC50

compound="O=C(NC1CC2(CNC2)C1)[C@@H]1CC[C@@H]2CN1C(=O)N2OS(=O)(=O)O [Compound 2]" readout_type=pIC50 quantitative_readout=7.46
compound="CN1CC2(CC(NC(=O)[C@@H]3CC[C@@H]4CN3C(=O)N4OS(=O)(=O)O)C2)C1 [Compound 6, hydrogen sulfate]" readout_type=pIC50 quantitative_readout=7.37

* * *

Molecular target: TEM-1 (Escherichia coli)
Construct: purchased
Sequence (P62593 24-286 limits assumed): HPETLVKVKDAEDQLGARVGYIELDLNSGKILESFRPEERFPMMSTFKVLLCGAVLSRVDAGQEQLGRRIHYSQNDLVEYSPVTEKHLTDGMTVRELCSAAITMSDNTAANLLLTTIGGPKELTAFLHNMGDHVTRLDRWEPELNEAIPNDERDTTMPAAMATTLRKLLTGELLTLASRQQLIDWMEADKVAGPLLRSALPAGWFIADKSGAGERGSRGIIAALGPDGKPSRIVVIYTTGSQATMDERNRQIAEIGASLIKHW
Experiment: β-lactamase inhibition, Nitrocefin hydrolysis
Assay type: biochemical
Conditions: Experiment 1; enzyme 0.25 nM, Nitrocefin 0.1 mM; read-out: IC50 ESBLs type TEM-1
Description: Nitrocefin, a kind of cephalosporin antibiotics, is sensitive to most of β-lactamases, and changes in color after being hydrolyzed. The hydrolysis rate of Nitrocefin was measured by real-time recording corresponding absorbance of reaction system. β-Lactamase inhibitors could inhibit hydrolysis of the enzymes to Nitrocefin, and reduce hydrolysis rate. […]
Recorded measurements of IC50, one per entry
readout-type: IC50

molecule="O=C(NC1CC2CCC(C1)N2)[C@@H]1CC[C@@H]2CN1C(=O)N2OS(=O)(=O)O (stereo partly shown) [Compound 4]" result="20.5 nM"
molecule="O=C(NC1C2CCC1CNC2)[C@@H]1CC[C@@H]2CN1C(=O)N2OS(=O)(=O)O (stereo partly shown) [Compound 5]" result="66.5 nM"
molecule="O=C(NC1CC2(CNC2)C1)[C@@H]1CC[C@@H]2CN1C(=O)N2OS(=O)(=O)O [Compound 2]" result="28.5 nM"
molecule="O=C(NC1CC2(CCNCC2)C1)[C@@H]1CC[C@@H]2CN1C(=O)N2OS(=O)(=O)O [Compound 1]" result="28.2 nM"

* * *

tested on: Enterobacter cloacae 7494ecl-295 (NDM, ESBLs, AmpC); assay: In vitro antibacterial activity on clinically separated CRE strain, agar dilution MIC; format: cell-based; conditions: Table 3, 7494ecl-295 Enterobacter cloacae
Counter-ions that a name gives are not always drawn.
Recorded measurements of MIC, one per entry
readout-type: MIC (µg/mL)

compound="CN1CC2(CC(NC(=O)[C@@H]3CC[C@@H]4CN3C(=O)N4OS(=O)(=O)O)C2)C1 [Compound 6, hydrogen sulfate]" assay_target="Enterobacter cloacae 7494ecl-295 (NDM, ESBLs, AmpC)" readout_type=MIC comparative_sign== quantitative_readout=2
compound=O=C(NC1CC2(CNC2)C1)[C@@H]1CC[C@@H]2CN1C(=O)N2OS(=O)(=O)O assay_target="Enterobacter cloacae 7494ecl-295 (NDM, ESBLs, AmpC)" readout_type=MIC comparative_sign== quantitative_readout=2
compound="NC(=O)[C@@H]1CC[C@@H]2CN1C(=O)N2OS(=O)(=O)O [AVI sodium salt, Avibactam, reference compound]" assay_target="Enterobacter cloacae 7494ecl-295 (NDM, ESBLs, AmpC)" readout_type=MIC comparative_sign=> quantitative_readout=8
compound="O=C(NC1CCNCC1)[C@@H]1CC[C@@H]2CN1C(=O)N2OS(=O)(=O)O [MK-7655, reference compound]" assay_target="Enterobacter cloacae 7494ecl-295 (NDM, ESBLs, AmpC)" readout_type=MIC comparative_sign=> quantitative_readout=8
